# test_system: human PD-1 / PD-L1-Ig binding on Jurkat cell line over-expressing human PD-1 (Jurkat-PD-1) (Homo sapiens)
# Construct: expressed in transfected cells; host or cells: Jurkat
# Sequence (Q15116 25-288): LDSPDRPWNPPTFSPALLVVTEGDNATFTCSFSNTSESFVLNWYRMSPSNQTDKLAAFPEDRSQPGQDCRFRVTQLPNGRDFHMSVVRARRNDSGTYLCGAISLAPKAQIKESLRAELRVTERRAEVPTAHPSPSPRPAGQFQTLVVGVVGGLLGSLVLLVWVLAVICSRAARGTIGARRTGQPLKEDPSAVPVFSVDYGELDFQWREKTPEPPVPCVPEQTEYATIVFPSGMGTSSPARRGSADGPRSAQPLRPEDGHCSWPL
# procedure_text: Jurkat-PD-1 Cell Binding High-Content Screening Assay (CBA)
# Type: cell-based
# condition_parameters: Jurkat-PD-1 cells, PE-labeled PD-L1-Ig 20 nM final; read-out: Jurkat HPD1_PDL1 IC50
Where a SMILES comes first, the peptide text is derived from it. Bridges are numbered along the chain shown (N, C = ends). [ ]: non-standard residue; d: D form. Bip = N[C@@H](Cc1ccc(-c2ccccc2)cc1)C(=O)O; Phe(3-Me) = Cc1cccc(C[C@H](N)C(=O)O)c1; 4Pal = N[C@@H](Cc1ccncc1)C(=O)O; Orn = NCCC[C@H](N)C(=O)O; Dab = NCC[C@H](N)C(=O)O; Dap = NC[C@H](N)C(=O)O
experimental_endpoint: pIC50
// pIC50 is dimensionless: -log10 of concentration (M)

Please look at this compound and report its pIC50: `Cc1cccc(C[C@@H]2NC(=O)[C@H](CC(=O)O)NC(=O)[C@H](Cc3ccc(OCC(=O)O)cc3)NC(=O)[C@H](Cc3ccc(OCC(=O)O)cc3)NC(=O)CSC[C@@H](C(=O)N[C@@H](C)C(N)=O)NC(=O)[C@H]([C@@H](C)O)NC(=O)[C@H](C(C)C)NC(=O)[C@H](CC3CCCCC3)NC(=O)[C@H](CCN)NC(=O)[C@@H](CC(C)C)NC(=O)[C@H](CCCN)NC(=O)[C@H](C(C)C)NC(=O)[C@H](Cc3ccc(-c4ccccc4)cc3)NC(=O)[C@H](C(C)C)NC2=O)c1`
7.76

Please look at this compound and report its pIC50: Cc1cccc(C[C@@H]2NC(=O)[C@H](CC(=O)O)NC(=O)[C@H](Cc3ccncc3)NC(=O)[C@H](CN)NC(=O)CSC[C@@H](C(=O)NCC(N)=O)NC(=O)[C@H](CO)NC(=O)[C@H](C(C)C)NC(=O)[C@H](CC(C)C)NC(=O)[C@H](CCN)NC(=O)[C@@H](CC(C)C)NC(=O)[C@H](CCCN)NC(=O)[C@H](C(C)C)NC(=O)[C@H](Cc3ccc(-c4ccccc4)cc3)NC(=O)[C@H](CC(C)C)NC2=O)c1 [Compound 1261] ({CH2CO}-[Dap][4Pal]D[Phe(3-Me)]L[Bip]V[Orn][dL][Dab]LVSCG-NH2; thioether N-14)
7.88
